Counter-ions that a name gives are not always drawn.
property.measured: IC50

Noted IC50 for O=C(NC1CC2(C1)CC(c1n[nH]c(=O)c3ccccc13)C2)c1cnn2cc(-c3c[nH]nc3C(F)(F)F)ccc12 (stereo not shown) , tested on UniProt O75116: 2.01 to 5 nM

Noted IC50 for Cc1ncc(-c2ccn3c(C(=O)NC4CC5(C4)CC(c4n[nH]c(=O)c6ccccc46)C5)cnc3c2)s1 (stereo not shown) , tested on UniProt O75116: 2.01 to 5 nM

Noted IC50 for N#CCCc1ccc2c(C(=O)NC3CC4(C3)CC(c3n[nH]c(=O)c5ccccc35)C4)cnn2c1 (stereo not shown) , tested on UniProt O75116: 2.01 to 5 nM

Noted IC50 for CN(C)CCCc1ccc2c(C(=O)NC3CC4(C3)CC(c3n[nH]c(=O)c5ccccc35)C4)cnn2c1 (stereo not shown) , tested on UniProt O75116: 5.1 to 15 nM

Noted IC50 for [H][C@]1(c2n[nH]c(=O)c3ccccc32)C[C@@]2(C[C@H](NC(=O)c3ncn4ccccc34)C2)C1 (stereo partly shown) , tested on UniProt O75116: 15.1 to 100 nM

Noted IC50 for [H][C@]1(c2n[nH]c(=O)c3ccccc32)C[C@]2(C[C@@H](NC(=O)c3cnn4cc(OCC(C)(C)OC(=O)[C@H](C)N)ccc34)C2)C1 (stereo partly shown) [Example 270, TFA] , tested on UniProt O75116: 0.2 to 2 nM

Noted IC50 for O=C(NC1CC2(C1)CC(c1n[nH]c(=O)c3ccccc13)C2)c1cccc(-c2cn[nH]c2)c1 (stereo not shown) , tested on UniProt O75116: 15.1 to 100 nM

Noted IC50 for CC(C)(C)n1cc(C(=O)NC2CC3(C2)CC(c2n[nH]c(=O)c4ccccc24)C3)cn1 (stereo not shown) , tested on UniProt O75116: 15.1 to 100 nM

Noted IC50 for [H][C@]1(c2n[nH]c(=O)c3ccccc32)C[C@]2(C[C@@H](NC(=O)c3ccc(-c4cnn(C)c4)nc3)C2)C1 (stereo partly shown) , tested on UniProt O75116: 5.1 to 15 nM

Noted IC50 for O=C(NC1CC2(C1)CC(c1n[nH]c(=O)c3ccccc13)C2)c1cnn2cc(-c3cnn(C4CC4)c3)ccc12 (stereo not shown) , tested on UniProt O75116: 0.2 to 2 nM

Noted IC50 for O=C(NC1CC2(C1)CC(F)(c1n[nH]c(=O)c3ccccc13)C2)c1cnn2ccccc12 (stereo not shown) , tested on UniProt O75116: 15.1 to 100 nM

Noted IC50 for O=C(N[C@H]1CC2(C1)C[C@H](c1n[nH]c(=O)c3ccccc31)C2)c1cc2ccccn2n1 (stereo partly shown) , tested on UniProt O75116: 5.1 to 15 nM

Noted IC50 for [H][C@]1(c2n[nH]c(=O)c3ccccc32)C[C@]2(C[C@@H](NC(=O)c3cccc(-n4cccn4)c3)C2)C1 (stereo partly shown) , tested on UniProt O75116: 15.1 to 100 nM

Noted IC50 for Cn1nc(C(F)(F)F)cc1C(=O)NC1CC2(C1)CC(c1n[nH]c(=O)c3ccccc13)C2 (stereo not shown) , tested on UniProt O75116: 5.1 to 15 nM

Noted IC50 for CC(C)(O)Cn1nc(C(=O)N[C@H]2CC3(C2)C[C@H](c2n[nH]c(=O)c4ccccc42)C3)c2ccc(C3CC3)cc21 (stereo partly shown) , tested on UniProt O75116: 2.01 to 5 nM

Noted IC50 for Cc1nc(NC2CC2)sc1C(=O)NC1CC2(C1)CC(c1n[nH]c(=O)c3ccccc13)C2 (stereo not shown) , tested on UniProt O75116: 15.1 to 100 nM

Noted IC50 for O=C(NC1CC2(C1)CC(c1n[nH]c(=O)c3ccccc13)C2)c1cnn2cc(N3CCC(F)C3)ccc12 (stereo not shown) , tested on UniProt O75116: 0.2 to 2 nM

Noted IC50 for O=C(NC1CC2(C1)CC(c1n[nH]c(=O)c3ccccc13)C2)c1cnn2cc(Cc3ccccc3)ccc12 (stereo not shown) , tested on UniProt O75116: 0.2 to 2 nM

Noted IC50 for O=C(NC1CC2(C1)CC(c1n[nH]c(=O)c3ccccc13)C2)c1cnn2cc(OC3CCOCC3)ccc12 (stereo not shown) , tested on UniProt O75116: 0.2 to 2 nM

Noted IC50 for O=C(NC1CC2(C1)CC(c1n[nH]c(=O)c3ccccc13)C2)c1ccn(C2CC2)n1 (stereo not shown) , tested on UniProt O75116: 5.1 to 15 nM

Noted IC50 for Cc1nn(C)c(C)c1-c1ccc2c(C(=O)NC3CC4(C3)CC(c3n[nH]c(=O)c5ccccc35)C4)cnn2c1 (stereo not shown) , tested on UniProt O75116: 0.2 to 2 nM

Noted IC50 for [H][C@]1(c2n[nH]c(=O)c3ccccc32)C[C@]2(C[C@@H](NC(=O)c3ccc(-n4ccnc4)cc3)C2)C1 (stereo partly shown) , tested on UniProt O75116: 100 to 2100 nM

Noted IC50 for [H][C@]1(c2n[nH]c(=O)c3ccccc32)C[C@]2(C[C@@H](NC(=O)c3cnc4c(C#N)cccn34)C2)C1 (stereo partly shown) , tested on UniProt O75116: 5.1 to 15 nM

Noted IC50 for Cn1cc(-c2ccc3c(C(=O)NC4CC5(C4)CC(c4n[nH]c(=O)c6ccccc46)C5)cnn3c2)cn1 (stereo not shown) , tested on UniProt O75116: 0.2 to 2 nM

Noted IC50 for [H][C@]1(c2n[nH]c(=O)c3ccccc32)C[C@]2(C[C@@H](NC(=O)c3cnc4cc(OCCC(F)(F)F)ccn34)C2)C1 (stereo partly shown) , tested on UniProt O75116: 2.01 to 5 nM

Noted IC50 for [H][C@]1(c2n[nH]c(=O)c3ccccc32)C[C@]2(C[C@@H](NC(=O)c3ccc4cn[nH]c4c3)C2)C1 (stereo partly shown) , tested on UniProt O75116: 5.1 to 15 nM

Noted IC50 for Cn1nc(C(=O)NC2CC3(C2)CC(c2n[nH]c(=O)n4cccc24)C3)c2ccccc21 (stereo not shown) [Example 280, TFA] , tested on UniProt O75116: 5.1 to 15 nM

Noted IC50 for O=C1N[C@@H](Cc2ccccc2)CN1[C@H]1CC2(C[C@H](c3n[nH]c(=O)c4ccccc43)C2)C1 (stereo partly shown) , tested on UniProt O75116: 100 to 2100 nM

Values compiled from patent US9902702B2.
